Biological target: AmpC_PA (Pseudomonas aeruginosa, UniProt P24735)
Sequence (P24735 27-397): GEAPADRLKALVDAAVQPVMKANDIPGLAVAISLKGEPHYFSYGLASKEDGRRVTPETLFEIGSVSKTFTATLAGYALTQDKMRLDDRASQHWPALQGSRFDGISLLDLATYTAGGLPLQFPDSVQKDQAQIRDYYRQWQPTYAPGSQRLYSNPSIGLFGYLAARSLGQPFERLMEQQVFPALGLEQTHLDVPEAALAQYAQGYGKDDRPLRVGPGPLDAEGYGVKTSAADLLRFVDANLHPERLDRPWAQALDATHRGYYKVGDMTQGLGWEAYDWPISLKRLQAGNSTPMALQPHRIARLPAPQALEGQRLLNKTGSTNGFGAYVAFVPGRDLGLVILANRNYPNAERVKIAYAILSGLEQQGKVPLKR
Assay: β-lactamase inhibition, spectrophotometric assay of nitrocefin hydrolysis
Experimental: Hydrolytic inactivation of the β-lactam antibiotics by β-lactamases is the most widespread drug resistant mechanism and the most challenge clinically among Gram-negative bacterial pathogens. […] The IC50 of selected derivatives disclosed herein (identified with reference to example number) plus six reference β-lactam or β-lactamase inhibitors were determined against 7 representative β-lactamases of various classes in a standard spectrophotometric assay of nitrocefin hydrolysis. […]
ASSAY READOUT: IC50
Please append the unit to your numeric answer.

>>> observed_measurement("CN(/N=C/[C@@]1(C)[C@H](C(=O)O)N2C(=O)C[C@H]2S1(=O)=O)C(=O)c1ccc(O)c(O)c1Cl")
"2.42 µM"
>>> observed_measurement("C[C@]1(COC(=O)NNC(=O)c2ccc(O)c(O)c2)[C@H](C(=O)O)N2C(=O)C[C@H]2S1(=O)=O")
"8.6 µM"
>>> observed_measurement("C[C@]1(/C=N/NC(=O)CNC(=O)c2ccc(O)c(O)c2)[C@H](C(=O)O)N2C(=O)C[C@H]2S1(=O)=O")
"0.641 µM"

The recorded IC50 with AmpC_PA (Pseudomonas aeruginosa, UniProt P24735) for CC1(C)[C@H](C(=O)O)N2C(=O)C[C@H]2S1(=O)=O [Sulbactam, reference compound] was 10.3 µM
